// provenance: ChEMBL document CHEMBL1129494

# ASSAY_SYSTEM: UniProtKB C3SWJ7
# Sequence (C3SWJ7 1-264): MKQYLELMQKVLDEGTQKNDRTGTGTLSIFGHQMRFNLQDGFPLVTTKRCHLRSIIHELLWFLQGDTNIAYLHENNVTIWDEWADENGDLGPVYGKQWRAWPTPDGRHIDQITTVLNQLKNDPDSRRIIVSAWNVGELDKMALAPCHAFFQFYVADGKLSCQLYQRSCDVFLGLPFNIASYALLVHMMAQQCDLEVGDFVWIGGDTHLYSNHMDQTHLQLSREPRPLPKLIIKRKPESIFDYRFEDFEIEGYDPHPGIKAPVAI
Under this convention, yes (1) denotes Kis strictly below 0.1 µM and no (0) denotes Kis at or above 0.1 µM.

> print(dat)
                                   compound      assay.system  group.label
1  Cc1nc(O)c2cc(CN(C)c3ccc(Cc4ccccc4)cc3)ccc2n1  UniProtKB C3SWJ7       no (0)
2  CCN(Cc1ccc2nc(C)nc(O)c2c1)c1ccc(C(=O)C(F)(F)F)cc1  UniProtKB C3SWJ7       no (0)
3  C#CCN(Cc1ccc2nc(C)nc(O)c2c1)c1ccc([N+](=O)[O-])cc1  UniProtKB C3SWJ7      yes (1)
4  C#CCN(Cc1ccc2nc(C)nc(O)c2c1)c1cccc(C(C)O)c1 (configuration not stated)  UniProtKB C3SWJ7       no (0)
5  C#CCN(Cc1ccc2nc(C)nc(O)c2c1)c1ccc([S+]([O-])c2ccccc2)cc1 (configuration not stated)  UniProtKB C3SWJ7       no (0)
